From: patent US10669272B2

Target: human DGKα (Homo sapiens, UniProt P23743)
Construct: TVMV protease cleavage site (C); Hexa-His (C); made in house; host or cells: Sf9 insect cells (baculovirus, Bac-to-Bac)
Sequence (P23743 with tags, fused parts or gaps): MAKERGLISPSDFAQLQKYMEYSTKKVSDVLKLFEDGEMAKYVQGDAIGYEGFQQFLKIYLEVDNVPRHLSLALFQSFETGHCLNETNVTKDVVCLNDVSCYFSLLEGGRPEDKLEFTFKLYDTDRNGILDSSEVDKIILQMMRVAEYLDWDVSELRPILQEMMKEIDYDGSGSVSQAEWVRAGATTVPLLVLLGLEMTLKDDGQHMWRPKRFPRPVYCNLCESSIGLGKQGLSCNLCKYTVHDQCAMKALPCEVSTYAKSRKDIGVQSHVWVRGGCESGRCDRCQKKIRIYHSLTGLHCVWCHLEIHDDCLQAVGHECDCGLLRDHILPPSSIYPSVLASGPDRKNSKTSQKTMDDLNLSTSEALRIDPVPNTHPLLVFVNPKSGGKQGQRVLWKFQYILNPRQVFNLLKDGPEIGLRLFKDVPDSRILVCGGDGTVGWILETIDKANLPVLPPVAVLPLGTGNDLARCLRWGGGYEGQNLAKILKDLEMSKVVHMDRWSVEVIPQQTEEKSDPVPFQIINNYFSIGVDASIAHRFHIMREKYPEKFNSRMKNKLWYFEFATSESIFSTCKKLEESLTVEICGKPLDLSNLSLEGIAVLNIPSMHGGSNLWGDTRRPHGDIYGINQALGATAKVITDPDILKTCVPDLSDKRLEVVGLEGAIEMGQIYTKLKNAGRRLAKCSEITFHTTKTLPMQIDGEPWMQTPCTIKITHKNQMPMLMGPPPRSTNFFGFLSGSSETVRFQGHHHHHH
Experiment: DGKα LIPGLO assay (extruded liposome substrate), in vitro DGK inhibition
Format: biochemical
Settings: liposome (LIPGLO) assay; read-out: DGKa LIPGLO IC50
QUANTITY MEASURED: IC50 (nM)

COMPOUND	MEASURED RESULT
CC[C@H]1CN(C(c2ccc(F)cc2)c2ccc(C(F)(F)F)cn2)[C@H](CC)CN1c1cc(=O)n(C)c2ccc(C#N)nc12 (stereo partly drawn) [Example 1039]	110
CC(c1ccc(OC(F)F)cc1)N1C[C@H](C)N(c2c(C#N)c(=O)n(C)c3ccc(C#N)nc23)C[C@H]1C (single isomer, unassigned) [Example 1375]	190
CC[C@H]1CN(C(C)c2ccc(F)cc2F)[C@H](C)CN1c1cc(=O)n(C)c2ccc(C#N)nc12 (single isomer, unassigned) [Example 1137]	26
C[C@@H]1CN(c2cc(=O)n(C)c3ccc(C#N)nc23)[C@@H](C)CN1C(c1c(F)cc(O)cc1F)C(F)(F)F (single isomer, unassigned) [Example 628]	5900
CC[C@@H]1CN(c2c(Cl)c(=O)n(C)c3ccc(C#N)nc23)CCN1C(c1ccc(F)cc1)c1ccc(F)cc1	2400
C[C@@H]1CN(c2cc(=O)n(C)c3ccc(C#N)nc23)[C@@H](C)CN1C(c1ccc(F)cc1)c1ccc(Cl)cn1 (single isomer, unassigned) [Example 211]	39

----------
Target: human DGKα (Homo sapiens)
Construct: TVMV protease cleavage site (C); Hexa-His (C); made in house; host or cells: Sf9 insect cells (baculovirus, Bac-to-Bac)
Test: DGKα LIPGLO assay (extruded liposome substrate), in vitro DGK inhibition
Type: biochemical
Details: DGKα liposome (LIPGLO) assay; read-out: DGKa LIPGLO IC50

COMPOUND	IC50, µM
C[C@@H]1CN(c2c(C#N)c(=O)n(C)c3ccc(C#N)nc23)CCN1C(c1ccc(F)cc1)c1ccc(C#N)cc1 (single isomer, unassigned) [Example 920]	4.9
Cc1ccc(C(c2ccc(F)cn2)N2C[C@H](C)N(c3c(C#N)c(=O)n(C)c4ccc(C#N)nc34)C[C@H]2C)cc1 (stereo partly drawn)	2
CC(c1c(F)cccc1F)N1C[C@H](C)N(c2c(C#N)c(=O)n(C)c3ccc(C#N)nc23)C[C@H]1C (single isomer, unassigned) [Example 780]	1.5

----------
Molecular target: human DGKα (Homo sapiens, UniProt P23743)
Construct: TVMV protease cleavage site (C); Hexa-His (C); made in house; host or cells: Sf9 insect cells (baculovirus, Bac-to-Bac)
Experiment: DGKα LIPGLO assay (extruded liposome substrate), in vitro DGK inhibition
Format: biochemical
Settings: liposome (LIPGLO) assay; read-out: DGKa LIPGLO IC50
Listing of entries alongside the reported log10 IC50.
QUANTITY MEASURED: log10 IC50 (log10 of the value in nM)

COMPOUND	QUANTITY MEASURED	MEASURED RESULT
C[C@@H]1CN(c2cc(=O)[nH]c3ccc(C#N)nc23)[C@@H](C)CN1C(c1ccc(F)cc1)c1ccc(C#N)cc1 (stereo partly drawn) [Example 1336]	log10 IC50	3.26
C[C@@H]1CN(c2cc(=O)n(C)c3ccc(C#N)nc23)[C@@H](C)CN1Cc1cccc(F)c1	log10 IC50	2.45
COCC(c1ccc(C(F)(F)F)cn1)N1C[C@H](C)N(c2cc(=O)n(C)c3ccc(C#N)nc23)C[C@H]1C (single isomer, unassigned) [Example 1277]	log10 IC50	1.84
[2H]C([2H])(c1c(F)cc(F)cc1F)N1C[C@H](C)N(c2cc(=O)n(C)c3ccc(C#N)nc23)C[C@H]1C	log10 IC50	2.61
CC[C@@H]1CN(c2cc(=O)n(C)c3ccc(C#N)nc23)[C@@H](C)CN1C(C)c1ccc(C2CC2)cc1F (single isomer, unassigned) [Example 1340]	log10 IC50	2.80
CC[C@@H]1CN(c2cc(=O)n(C)c3ccc(C#N)nc23)[C@@H](C)CN1C(c1ccc(F)cc1)c1ccc(Cl)cc1 (stereo partly drawn) [Example 1100]	log10 IC50	2.59
